Molecular target: mouse γ-secretase
Experiment: Fluorogenic substrate assay with mouse γ-secretase from mouse cortex membrane
Assay type: biochemical
Settings: mean ± SEM, n = 3
Method: All procedures were carried out at 4 °C. […] For assay optimization, aliquots of membrane protein (5~30 μg) was added to each well of a 96-well plate with various concentrations of fluorogenic substrate (4~8 μM). […] Fluorescence was measured using a BIOTEK FLX800 microplate reader with the excitation wavelength at 355 nm and the emission wavelength at 440 nm. […] Data were analyzed with GraphPad Prism software (GraphPad, San Diego, CA, USA). […] Mean ± SEM was calculated automatically with this software. […]
Property Name: pIC50
Kindly note that pIC50 refers to -log10 of the concentration in mol/L and answer with the value alone.

These solved cases illustrate the format of a correct answer.
// fetch pIC50; item: C[C@H](NC(=O)Cc1cc(F)cc(F)c1)C(=O)N[C@H]1N=C(c2ccccc2)c2ccccc2N(C)C1=O ; system: mouse γ-secretase
8.62

// fetch pIC50; item: COC(=O)[C@@H](NC(=O)[C@H](CC(C)C)NC(=O)N(Cc1ccccc1)C[C@@H](O)[C@H](Cc1ccccc1)NC(=O)OC(C)(C)C)C(C)C [31C] ; system: mouse γ-secretase
7.68

// fetch pIC50; item: C[C@H](NC(=O)Cc1cc(F)cc(F)c1)C(=O)N[C@@H]1C(=O)N(C)c2ccccc2-c2ccccc21 ; system: mouse γ-secretase
8.84

Moving on to another compound below.
// fetch pIC50; item: CC(C)C[C@H](NC(=O)[C@H](Cc1ccccc1)C[C@@H](O)[C@H](Cc1ccccc1)NC(=O)OC(C)(C)C)C(=O)N[C@@H](Cc1ccccc1)C(N)=O ; system: mouse γ-secretase
9.01

----------
Molecular target: human γ-secretase (Homo sapiens, UniProt P49768)
Construct: endogenously expressing human γ-secretase from HEK293T cell membrane; endogenous in cells
Experiment: Fluorogenic substrate assay with endogenous human γ-secretase from HEK293T cell membrane
Settings: 10 μg membrane protein, 6 μM substrate, 5 h, 37 °C, mean ± SEM
Protocol: All procedures were carried out at 4 °C. […] Mouse cortex was homogenized with 15 stokes of pestle A in the same lysis buffer. The homogenates were centrifuged at 800 g for 10 min to remove nuclei and large debris. […] Data were analyzed with GraphPad Prism software (GraphPad, San Diego, CA, USA). […] Mean ± SEM was calculated automatically with this software. […]
Property Name: IC50 (nM)
API: value field is a number in nM; no unit string.

Tell me IC50 reported for C[C@H](NC(=O)Cc1cc(F)cc(F)c1)C(=O)N[C@H](C(=O)OC(C)(C)C)c1ccccc1 [DAPT]
3910

***
Tell me IC50 reported for C[C@H](NC(=O)Cc1cc(F)cc(F)c1)C(=O)N[C@@H]1C(=O)N(C)c2ccccc2-c2ccccc21 [DBZ]
12.5

Tell me IC50 reported for CC(C)C[C@H](NC(=O)[C@H](Cc1ccccc1)C[C@@H](O)[C@H](Cc1ccccc1)NC(=O)OC(C)(C)C)C(=O)N[C@@H](Cc1ccccc1)C(N)=O [L685,458]
4.43

Tell me IC50 reported for CC12CCC(C1)C(C)(C)C2NS(=O)(=O)c1ccc(F)cc1 (stereo not drawn) [Inhibitor VI]
44500

Tell me IC50 reported for C[C@H](NC(=O)Cc1cc(F)cc(F)c1)C(=O)N[C@H]1N=C(c2ccccc2)c2ccccc2N(C)C1=O [Compound E]
53.9

Tell me IC50 reported for COC(=O)[C@@H](NC(=O)[C@H](CC(C)C)NC(=O)N(Cc1ccccc1)C[C@@H](O)[C@H](Cc1ccccc1)NC(=O)OC(C)(C)C)C(C)C [31C]
53.5

----------
biological target: drosophila γ-secretase (Drosophila melanogaster, UniProt O02194); construct: membrane containing drosophila or mouse γ-secretase was isolated from S2 cells or mouse cortex, respectively; host or cells: Drosophila Schneider 2 (S2) cells, membrane fraction; assay: Fluorogenic substrate assay with drosophila γ-secretase from S2 cell membrane; assay type: biochemical
Sequence (O02194 whole entry): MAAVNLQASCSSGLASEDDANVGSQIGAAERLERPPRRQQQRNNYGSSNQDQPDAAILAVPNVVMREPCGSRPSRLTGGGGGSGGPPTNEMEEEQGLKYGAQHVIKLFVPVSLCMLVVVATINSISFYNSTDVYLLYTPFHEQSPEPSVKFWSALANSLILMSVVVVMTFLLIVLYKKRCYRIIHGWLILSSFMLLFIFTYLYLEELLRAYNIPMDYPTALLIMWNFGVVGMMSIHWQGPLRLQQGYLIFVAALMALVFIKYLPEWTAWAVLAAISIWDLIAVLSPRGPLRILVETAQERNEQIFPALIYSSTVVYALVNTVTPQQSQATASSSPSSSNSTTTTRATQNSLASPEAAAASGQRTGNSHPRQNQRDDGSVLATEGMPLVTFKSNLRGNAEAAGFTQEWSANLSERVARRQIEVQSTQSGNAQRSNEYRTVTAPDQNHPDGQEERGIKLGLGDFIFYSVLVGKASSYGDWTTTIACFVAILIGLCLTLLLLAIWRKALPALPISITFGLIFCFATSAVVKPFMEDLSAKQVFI
Sequence (Q9VC27 23-695 partner): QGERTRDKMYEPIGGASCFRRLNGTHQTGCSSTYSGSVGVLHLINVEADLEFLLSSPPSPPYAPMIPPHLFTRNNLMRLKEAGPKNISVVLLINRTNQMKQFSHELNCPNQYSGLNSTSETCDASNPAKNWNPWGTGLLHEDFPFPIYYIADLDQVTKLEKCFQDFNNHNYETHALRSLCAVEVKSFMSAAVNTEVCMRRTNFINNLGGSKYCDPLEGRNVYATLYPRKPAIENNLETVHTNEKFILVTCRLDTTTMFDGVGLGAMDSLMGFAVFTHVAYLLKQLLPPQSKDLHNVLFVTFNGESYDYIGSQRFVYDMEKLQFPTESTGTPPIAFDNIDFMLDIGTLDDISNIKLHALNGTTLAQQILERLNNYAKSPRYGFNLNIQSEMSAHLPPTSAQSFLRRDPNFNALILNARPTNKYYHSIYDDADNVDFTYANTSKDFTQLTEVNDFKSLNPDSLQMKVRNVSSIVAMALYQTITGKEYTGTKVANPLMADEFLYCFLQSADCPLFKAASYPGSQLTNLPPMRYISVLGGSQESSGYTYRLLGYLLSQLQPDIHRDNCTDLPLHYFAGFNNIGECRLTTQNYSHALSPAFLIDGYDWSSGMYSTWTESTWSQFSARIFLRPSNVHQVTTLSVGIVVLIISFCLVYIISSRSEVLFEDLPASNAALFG
Sequence (Q9VQG2 whole entry partner): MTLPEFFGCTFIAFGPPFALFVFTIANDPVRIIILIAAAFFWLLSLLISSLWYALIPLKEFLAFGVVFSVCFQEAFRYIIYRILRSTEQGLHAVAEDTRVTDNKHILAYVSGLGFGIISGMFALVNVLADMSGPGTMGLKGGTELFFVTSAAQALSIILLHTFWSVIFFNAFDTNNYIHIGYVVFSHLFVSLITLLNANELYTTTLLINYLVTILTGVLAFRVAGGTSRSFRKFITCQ
Sequence (Q86BE9 whole entry partner): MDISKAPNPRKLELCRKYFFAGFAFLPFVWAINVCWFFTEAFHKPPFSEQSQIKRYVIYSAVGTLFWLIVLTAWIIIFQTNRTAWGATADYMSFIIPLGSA
Property Name: pIC50
Kindly note that pIC50 refers to -log10 of the concentration in mol/L and answer with the value alone.

Tell me pIC50 reported for C[C@H](NC(=O)Cc1cc(F)cc(F)c1)C(=O)N[C@H]1N=C(c2ccccc2)c2ccccc2N(C)C1=O
7.39

----------
Catalogue of maximal inhibition values
target: human γ-secretase (Homo sapiens); construct: endogenously expressing human γ-secretase from HEK293T cell membrane; endogenous in cells; host or cells: HEK293T cells (membrane fraction, solubilised with 0.25% CHAPSO); assay: Fluorogenic substrate assay with endogenous human γ-secretase from HEK293T cell membrane; format: biochemical; settings: human γ-secretase, relative to 1 μM L685,458 = 100%
API: value field is a number in %; no unit string.

Tell me maximal inhibition reported for CC12CCC(C1)C(C)(C)C2NS(=O)(=O)c1ccc(F)cc1 (centres unmarked)
67.3

Tell me maximal inhibition reported for C[C@H](NC(=O)Cc1cc(F)cc(F)c1)C(=O)N[C@H]1N=C(c2ccccc2)c2ccccc2N(C)C1=O
92.3

----------
target: human γ-secretase (Homo sapiens, UniProt P49768); construct: endogenously expressing human γ-secretase from HEK293T cell membrane; endogenous in cells; host or cells: HEK293T cells (membrane fraction, solubilised with 0.25% CHAPSO); assay: Fluorogenic substrate assay with endogenous human γ-secretase from HEK293T cell membrane; type: biochemical; details: human γ-secretase, relative to 1 μM L685,458 = 100%
Property Name: maximal inhibition

These solved cases illustrate the format of a correct answer.
Tell me maximal inhibition reported for C[C@H](NC(=O)Cc1cc(F)cc(F)c1)C(=O)N[C@@H]1C(=O)N(C)c2ccccc2-c2ccccc21 [DBZ]
95.2%

Tell me maximal inhibition reported for C[C@H](NC(=O)Cc1cc(F)cc(F)c1)C(=O)N[C@H](C(=O)OC(C)(C)C)c1ccccc1 [DAPT]
69.7%

Moving on to another compound below.
Tell me maximal inhibition reported for COC(=O)[C@@H](NC(=O)[C@H](CC(C)C)NC(=O)N(Cc1ccccc1)C[C@@H](O)[C@H](Cc1ccccc1)NC(=O)OC(C)(C)C)C(C)C [31C]
103.1%
